- System: RARb homodimer (NR concentration 270 nM)
- Assay Name: PBM binding z-score (relative to random genomic background probes); higher = stronger binding; sequences stand for … in GC…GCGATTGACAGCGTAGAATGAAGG
Readout Name: PBM binding z-score
Give only the figure.

In [3]: df
Out[3]:
                       sequence_entry                         system_under_test  value
0  ACTCAAAGTTCAGGACGAGGTAACGTAAAGCACG  RARb homodimer (NR concentration 270 nM)   3.56
1  ACAGACAGGTCAGTGAAGGTAACTCAGCTGGACG  RARb homodimer (NR concentration 270 nM)   2.48
2  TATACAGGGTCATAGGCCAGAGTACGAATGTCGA  RARb homodimer (NR concentration 270 nM)   3.08
3  TCGCGGAGGACACGAAGGTCAGAGCTTTCCAGAG  RARb homodimer (NR concentration 270 nM)   3.67
4  CCGACCGGGGCAGAAAGGTTACCATACCATCCGG  RARb homodimer (NR concentration 270 nM)   2.41

Now look at this entry.
Would you kindly share the measured PBM binding z-score for GGAACGAGAGCATTCGAGTTGATAGCATGGCGAT ?
-1.06

###

- System: RXRa homodimer (NR concentration 180 nM)
- Assay Name: PBM binding z-score (relative to random genomic background probes); higher = stronger binding; sequences stand for … in GC…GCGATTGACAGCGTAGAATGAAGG
The label depends only on PBM binding z-score: 1 if it is at least 2, 0 if it is smaller.

Previously resolved entries follow.
                       sequence_entry                         system_under_test  class_label
0  CTACCAAGGTGAACAAGGTCTTTGATTACTATTC  RXRa homodimer (NR concentration 180 nM)            0
1  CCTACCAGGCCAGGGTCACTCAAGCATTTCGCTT  RXRa homodimer (NR concentration 180 nM)            1
2  GCTAGTCGGTCAGTAAAAGGTCACACACCGGTCG  RXRa homodimer (NR concentration 180 nM)            1
3  AATACAGGGTCACTAGGCGAGAGTAGGTACGAAT  RXRa homodimer (NR concentration 180 nM)            1
4  CCAGACAGGTGAGAAGGTAACTCACCCTCGATTA  RXRa homodimer (NR concentration 180 nM)            0
5  CAAACTAGGTTAAAGGTCAAAGTCGAGCCAACCA  RXRa homodimer (NR concentration 180 nM)            1

Test whether the sequence TAGCCTAGGTCATGCGGGCCTGTATAGTGTCGGC records PBM binding z-score of 2 or higher.
1

Reported PBM binding z-score at or above 2? ATGTGTAGGTTAGCTGGGGTCATTCAGACTAGGC
1

Tell me whether PBM binding z-score is at least 2 here: TCTATTAGTCGAAGGGCAACCGACGAGTCCGTTT
0

###

Below, each entry is listed alongside its reported PBM binding z-score.
- Tested on: PPARg:RXRa DBDmut IVT, anti-RXR (DBD mutation: RXRa K156A/R161A, NR concentration 270 nM, RXRa partner concentration 90 nM)
- Assay Name: PBM binding z-score (relative to random genomic background probes); higher = stronger binding; sequences stand for … in GC…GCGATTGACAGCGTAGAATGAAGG
# output: bare number, no unit

Previously resolved entries follow.
>>> print(df.to_string())
                       sequence_entry         readout_name   value
0  AGAACGAGGGCACGGTGAGTTGATAGCAGAGTAG  PBM binding z-score    3.46
1  GTACCAAGATGAATAGGTCGTTGATGAGTAGGCG  PBM binding z-score  -0.366
2  ATCGAAAGGTCGAAGTTGAGTATACCCACCCGAA  PBM binding z-score  0.0828
3  ATATGTTGGTTATCGGGTCATTCAGTTTGCGCAT  PBM binding z-score     2.6
4  GCAACGAGGGCAAGTTGATAGCAGAGTTTGATGG  PBM binding z-score    2.75

# get_value(readout='PBM binding z-score', item= ACTATTAGTTGACTTAGGGCATCCGATACGACGC )
0.311

Look up PBM binding z-score: TTACCAAGGTGAGCTCAGGTCGTTGATCCAACTC
1.23

Cited source: the supplement of paper PMC6555819
